Where do these numbers come from? They come from patent US20230331803A1.

The substances listed here are annotated with their EC50.
Target: human GLP-1 receptor (Homo sapiens, UniProt P43220)
Construct: expressed in transfected cells; host or cells: BHK (Baby Hamster Kidney) cells, clone BHK 467-12A KZ-10, stably transfected, with CRE-luciferase reporter
Sequence (P43220 24-463): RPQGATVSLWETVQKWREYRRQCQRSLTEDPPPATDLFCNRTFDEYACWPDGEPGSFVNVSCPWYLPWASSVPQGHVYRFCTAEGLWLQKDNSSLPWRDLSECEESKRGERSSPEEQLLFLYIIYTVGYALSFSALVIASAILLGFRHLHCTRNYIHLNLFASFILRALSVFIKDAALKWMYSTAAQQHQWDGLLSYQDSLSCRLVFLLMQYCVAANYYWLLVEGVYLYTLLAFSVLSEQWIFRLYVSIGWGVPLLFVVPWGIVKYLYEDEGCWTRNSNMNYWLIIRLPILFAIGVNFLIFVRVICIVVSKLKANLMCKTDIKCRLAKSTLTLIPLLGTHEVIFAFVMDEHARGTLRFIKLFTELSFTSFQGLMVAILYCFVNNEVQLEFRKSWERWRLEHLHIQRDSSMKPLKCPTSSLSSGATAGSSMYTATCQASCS
Experiment: Human GLP-1 receptor in vitro potency assay (CRE-luciferase reporter, BHK cells)
Type: cell-based
Conditions: Table 4a; BHK cells expressing human GLP-1R, CRE-Luc, 3 hours; read-out: Human GLP-1R potency [EC50 (pM)]
Starred links: 1 amine or outer side, 2 acyl side, 3 side chain; linkers in the order of their positions; H or OH if unused. Non-standard residues stand in square brackets, D forms with d. Groups on a side chain read outwards from the residue. *: point of attachment. C20 diacid = O=C(O)CCCCCCCCCCCCCCCCCCC(=O)*; C18 diacid = O=C(O)CCCCCCCCCCCCCCCCC(=O)*; C16 diacid = O=C(O)CCCCCCCCCCCCCCC(=O)*; γGlu = O=C(O)[C@H](CCC(=O)[*:2])N[*:1]; Trx = NC[C@H]1CC[C@H](C(=O)O)CC1; AEEA = NCCOCCOCC(=O)O; Aib = CC(C)(N)C(=O)O; Ahx = NCCCCCC(=O)O
Answer with a number only, understood to be in pM.

H-H[Aib]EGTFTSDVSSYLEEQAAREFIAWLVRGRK([Ahx-Ahx-γGlu-C18 diacid])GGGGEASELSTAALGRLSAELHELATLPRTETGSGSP-NH2 [Compound 0658]    3.1
H[Aib]EGTFTSDVSSYLEEQAARK([AEEA-AEEA-γGlu-C18 diacid])FIAWLVRGRK([AEEA-AEEA-γGlu-C18 diacid])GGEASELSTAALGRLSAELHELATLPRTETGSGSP-NH2 [Compound 0116]    1.5
H-H[Aib]EGTFTSK([AEEA-AEEA-γGlu-Trx-C20 diacid])VSSYLEEQAAREFIEWLVRGRGEASELSTAALGRLSAELHELATLPRTETGSGSP-NH2 [Compound 0417]    97.8
H-H[Aib]EGTFTSDVSK([AEEA-AEEA-γGlu-C16 diacid])YLEEQAARK([AEEA-AEEA-γGlu-C16 diacid])FIAWLVRGRGGGGGEASELSTAALGRLSAELHELATLPRTETGSGSP-NH2 [Compound 0516]    3.3
H-H[Aib]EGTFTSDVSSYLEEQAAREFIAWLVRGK([AEEA-AEEA-γGlu-C16 diacid])GGGGGEASELSTAALGRLSAELHELK([AEEA-AEEA-γGlu-C16 diacid])TLPRTETGSGSP-NH2 [Compound 0281]    35.2

Prompt line: Answer with the recorded EC50 of H-H[Aib]EGTFTSDVSSYLEGQAAK([AEEA-AEEA-γGlu-C18 diacid])EFIAWLVRGRGQEPGQAPEASELSTAALGRLSAELHELATLPRTETGSGSP-NH2 [Compound 0026] only.
Response line: 8.8

====

Biological target: human GLP-1 receptor (Homo sapiens, UniProt P43220)
Construct: expressed in transfected cells; host or cells: BHK (Baby Hamster Kidney) cells, clone BHK 467-12A KZ-10, stably transfected, with CRE-luciferase reporter
Test: Human GLP-1 receptor in vitro potency assay (CRE-luciferase reporter, BHK cells)
Type: cell-based
Conditions: Table 4a; BHK cells expressing human GLP-1R, CRE-Luc, 3 hours; read-out: Human GLP-1R potency [EC50 (pM)]
Starred links: 1 amine or outer side, 2 acyl side, 3 side chain; linkers in the order of their positions; H or OH if unused. Non-standard residues stand in square brackets, D forms with d. Groups on a side chain read outwards from the residue. *: point of attachment. C20 diacid = O=C(O)CCCCCCCCCCCCCCCCCCC(=O)*; γGlu = O=C(O)[C@H](CCC(=O)[*:2])N[*:1]; AEEA = NCCOCCOCC(=O)O; Aib = CC(C)(N)C(=O)O
The following substances are shown together with reported EC50 values.
Write down the numeric answer in pM and omit the unit.

H-H[Aib]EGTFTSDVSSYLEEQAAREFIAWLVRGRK([AEEA-AEEA-AEEA-AEEA-γGlu-C20 diacid])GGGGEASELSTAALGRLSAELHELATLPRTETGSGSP-NH2 [Compound 0663]    3.2

Now look at this one.
Prompt line: Return EC50 (reported value) for this substance: HWEGTFTSD-K([2-[2-[2-[[2-[2-[2-[[(4S)-4-Carboxy-4-[[4-[(19-Carboxynonadecanoylamino)Methyl]Cyclohexanecarbonyl]Amino]Butanoyl]Amino]Ethoxy]Ethoxy]Acetyl]Amino]Ethoxy]Ethoxy]Acetyl])-SSYLEEQAAREFIEWLVRGRGEASELSTAALGRLSAELHELATLPRTETGSGSP-amide [Compound 0272]
Response line: 9.2
